B1: Azoarcus group I ribozyme (parent)
chain: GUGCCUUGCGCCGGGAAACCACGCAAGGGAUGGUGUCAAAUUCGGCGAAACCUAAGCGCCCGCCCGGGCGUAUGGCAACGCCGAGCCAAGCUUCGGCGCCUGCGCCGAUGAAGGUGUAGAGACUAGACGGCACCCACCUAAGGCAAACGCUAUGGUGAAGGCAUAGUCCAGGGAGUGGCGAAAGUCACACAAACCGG

Variants of: B1
Experiment: reverse-splicing fitness (ratio to wild type); higher = more active; in vitro selection; Mg2+ level not given
Here the recorded reverse-splicing fitness is given for each entry.
The answer should be written as a number, with no unit following it.

These recorded examples may help you get a feel for the data.
{"variant string": "C82G A120G C150U", "observed value": 0.0196}
{"variant string": "A111C A145C C150A U176A", "observed value": 0.0687}
{"variant string": "C82A A120U A145G C150G C169U U176C", "observed value": 0.00657}
{"variant string": "C82U A120G A145U C150G C169A U176A", "observed value": 0.00927}
{"variant string": "C82G A111C A120C A145U C150A C169U U176G", "observed value": 0.00817}

Let us examine a further case.
IN: So what does the record say about reverse-splicing fitness for C82A A145C C169G ?
OUT: 0.0105
